// values below are reported transcriptional activation domain activity
# System: Saccharomyces cerevisiae
# TEST PROTOCOL: transcriptional activation domain activity (GFP:mCherry ratio, weighted mean of sorted bins, harmonized to initial dataset scale) (arbitrary fluorescence ratio units); higher = stronger transcriptional activation
# EXPERIMENTAL SETUP: beta-estradiol 1 µM; induction time 4 h
MEASURED ATTRIBUTE: transcriptional activation domain activity

In [3]: df
Out[3]:
                             input_sequence  result_value
0  YMIGLLFRTYFKLKSLNLCKNVLRAVSVSELPSLSEFPKAHQVTFRYYTGVLS         70100
1  VFSQTEAIRVLGLIGRIATGRHLDIILSDILPPSTVAELYALGKFMNLPWWYR         58400
2  VLLILGLGNPLCSRPVKLFEWMIAALVFAVLICMTMIIVKVNVVWSQAFNGFV         45600

====

# Test system: Saccharomyces cerevisiae
# TEST PROTOCOL: transcriptional activation domain activity (GFP:mCherry ratio, weighted mean of sorted bins, harmonized to initial dataset scale) (arbitrary fluorescence ratio units); higher = stronger transcriptional activation
# EXPERIMENTAL SETUP: beta-estradiol 1 µM; induction time 4 h
Entry flag: fulfilled if transcriptional activation domain activity reaches 40000; not fulfilled if it does not.

>>> df
                              input_sequence         target_under_test  class_assignment
 0  LLRFSLLLMFPWLVCLVSCFPCFPLLLPTSCATRFRFLHPFLTVSLLSLLFLC  Saccharomyces cerevisiae         fulfilled
 1  TGRLQFKWAFVPYILARFVLLGQLLALTLVLRNLQTLIHCGKVLRWLTIVSNV  Saccharomyces cerevisiae         fulfilled
 2  MILTSHLSFILFLFLFLFPFSFSSFLPFYLHYLFILPSILIFPSPPFLPSLFL  Saccharomyces cerevisiae         fulfilled
 3  RPAAVLARQRERERARDARARAVRGAAPVAAAVAVRRVARHVCVACACAAAAA  Saccharomyces cerevisiae         fulfilled
 4  AQLLRLAHIHQIRHMVHIFSPVWYRPAVIYCFIAICFIVVLNIQALLSIVWSS  Saccharomyces cerevisiae         fulfilled
 5  MHTHAVTRSLFLYFLLNFFFIFFLLLEGFGLLLDFSFFFVLFRLDSLSLLFVF  Saccharomyces cerevisiae         fulfilled
 6  RHLPAVNGGKLTSYAIVGEGSMSPHFVWTAHHAVYVVDGWSLALLFRKVELRY  Saccharomyces cerevisiae         fulfilled
 7  TRMLLHWFHCQDNVWYYYVAFFFAELLVYTVMIVSIGSILFQWRFFCRVAYKM  Saccharomyces cerevisiae     not fulfilled
 8  LNILTSVWAVPVVITLIQALLVMRVCMLFCFNLRVTLCLWALLFASATVSVVL  Saccharomyces cerevisiae         fulfilled
 9  QKVGSDKTPGGGSSQYIWLIVYLSISLLSSVLVATTMLLIYTGSLRASVILHE  Saccharomyces cerevisiae         fulfilled
10  KADDEKPKKAARGAKAKKEEDEDEEADEEQEEPKKPARKPRAKAEPKKAPAKS  Saccharomyces cerevisiae     not fulfilled
11  ANGSSATTPEPDGKTAAGTAAVPKRKQTEKKANGPTKKQKTGSPKKGGRKGAS  Saccharomyces cerevisiae     not fulfilled
12  FFFFFFFFFFFFFLFLLLSLFFPYLICHRLHLKTQLPHICFIFRLLAASCLST  Saccharomyces cerevisiae         fulfilled
13  KLWKKPIIVVMAAMPIIMDGVGNLLIPYLHSFVLHSLLFCHKKVAFLMLLLIF  Saccharomyces cerevisiae         fulfilled
14  RSSKPSSRFLVLTKQKVYILVTRMVQNAPQTTIERSVGISSISSASVSTLQDD  Saccharomyces cerevisiae     not fulfilled
15  HHLSSQLVFSRSRFFYSSFTSWINVFLVISLIVFLLSILLLFLIIFLLHYIFF  Saccharomyces cerevisiae     not fulfilled
16  RTSDRYLETLDALFVDKFVYAHAWTTFMSTCLKTWRRDCCSSAMLLLLHILCF  Saccharomyces cerevisiae         fulfilled
17  DWYFDLPLWVFVCFFLFVFLTLMTFRTPSLTRYYCTVVYYLLGKWVGNCIVYT  Saccharomyces cerevisiae     not fulfilled
18  ASEPVKEETKPPVEEHASEPVEEETKPVEEEIKPVEEHASEPVKEETKPAEEH  Saccharomyces cerevisiae     not fulfilled
19  PKKLQEDTELETEQENQMLNQVGNINYTHDFSLSHEIDDLIRELFGVGTPQKL  Saccharomyces cerevisiae         fulfilled
20  MVLRYRLSRSFPTLFIHVQLVLQSLRMGQVSLCMVVQIVWEYIYFWLLGNIAW  Saccharomyces cerevisiae         fulfilled
21  VKEGGKDLVQLPKSWVEIDGEILVRAVLLLLHPGATLYGPVPMKIARNWPFAS  Saccharomyces cerevisiae         fulfilled
22  EFVQVAAKPVAKKEESSDEDSDDESEDEKPAAKKAAAPVKVCSGFPYANIALI  Saccharomyces cerevisiae     not fulfilled
23  MEAKEGRPGNAFACERCRKHKVRCVPSDAPGICQRCQRARAPCIEHVARRRPA  Saccharomyces cerevisiae     not fulfilled
24  MSTAAVNEVTETLAATAISNPTNGAAANEATAASADEGRRLYIGNLAYATTEG  Saccharomyces cerevisiae     not fulfilled
